- target-of-assay: IGFR-1 (Homo sapiens, UniProt P08069)
- Construct: Kinases are expressed as either kinase domains or full length constructs; made in house
- Sequence (P08069 31-1367): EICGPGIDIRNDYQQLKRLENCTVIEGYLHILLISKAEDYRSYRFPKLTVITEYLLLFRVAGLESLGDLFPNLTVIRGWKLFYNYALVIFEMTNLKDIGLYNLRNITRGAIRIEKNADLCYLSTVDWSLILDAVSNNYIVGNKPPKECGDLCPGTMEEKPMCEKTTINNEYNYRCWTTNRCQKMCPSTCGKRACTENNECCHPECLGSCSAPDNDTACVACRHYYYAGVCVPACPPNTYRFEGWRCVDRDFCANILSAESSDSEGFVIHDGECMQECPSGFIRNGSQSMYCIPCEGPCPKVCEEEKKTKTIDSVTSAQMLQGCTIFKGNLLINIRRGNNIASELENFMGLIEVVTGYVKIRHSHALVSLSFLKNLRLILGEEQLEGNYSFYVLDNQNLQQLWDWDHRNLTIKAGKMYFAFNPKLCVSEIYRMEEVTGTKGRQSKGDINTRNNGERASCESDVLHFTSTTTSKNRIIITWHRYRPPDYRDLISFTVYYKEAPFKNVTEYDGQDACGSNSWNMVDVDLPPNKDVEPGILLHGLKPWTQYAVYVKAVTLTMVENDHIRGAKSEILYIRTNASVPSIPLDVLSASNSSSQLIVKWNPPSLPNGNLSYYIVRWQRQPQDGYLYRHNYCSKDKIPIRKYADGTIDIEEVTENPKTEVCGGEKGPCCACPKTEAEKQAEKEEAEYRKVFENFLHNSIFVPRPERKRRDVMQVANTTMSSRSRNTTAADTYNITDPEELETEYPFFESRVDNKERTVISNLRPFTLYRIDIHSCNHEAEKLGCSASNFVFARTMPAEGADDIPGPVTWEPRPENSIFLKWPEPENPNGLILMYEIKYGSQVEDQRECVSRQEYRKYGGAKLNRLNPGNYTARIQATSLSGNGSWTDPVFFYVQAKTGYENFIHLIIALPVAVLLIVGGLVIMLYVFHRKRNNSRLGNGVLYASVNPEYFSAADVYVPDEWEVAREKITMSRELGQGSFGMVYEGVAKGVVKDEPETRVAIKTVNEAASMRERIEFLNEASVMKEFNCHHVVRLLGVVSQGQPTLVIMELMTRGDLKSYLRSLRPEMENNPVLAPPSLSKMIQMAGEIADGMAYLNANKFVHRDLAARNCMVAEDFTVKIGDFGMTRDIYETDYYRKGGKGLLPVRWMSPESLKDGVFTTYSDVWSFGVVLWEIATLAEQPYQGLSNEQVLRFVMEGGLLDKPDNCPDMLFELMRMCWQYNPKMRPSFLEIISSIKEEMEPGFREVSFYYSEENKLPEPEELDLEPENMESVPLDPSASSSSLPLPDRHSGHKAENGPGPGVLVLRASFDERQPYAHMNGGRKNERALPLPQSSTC
- test-details: Kinase inhibition assay (33P transfer), IGFR-1
- Assay type: biochemical
- assay-conditions: Table 2, kinase inhibition class
pIC50: −log10 of the molar value.
pIC50 by entry:

                         chemical_structure  recorded_result
0  COCCOc1ccc(Nc2ncnc(Nc3ccc(C)c(O)c3)n2)cc1OCCOC     5.26 to 6.04

Per the records, this compound ( COc1ccc(Nc2ncnc(Nc3cc(OC)c(OC)c(OC)c3)n2)cc1O ) has pIC50 equal to 5.22 to 6.00

Per the records, this compound ( COc1cc(Nc2ncnc(Nc3cc(Cl)c(O)c(Cl)c3)n2)cc(OC)c1OC ) has pIC50 equal to > 6.04

###

pIC50 by entry:
- target-of-assay: c-Met (Homo sapiens, UniProt P08581)
- Construct: Kinases are expressed as either kinase domains or full length constructs; made in house
- Sequence (P08581 25-1390): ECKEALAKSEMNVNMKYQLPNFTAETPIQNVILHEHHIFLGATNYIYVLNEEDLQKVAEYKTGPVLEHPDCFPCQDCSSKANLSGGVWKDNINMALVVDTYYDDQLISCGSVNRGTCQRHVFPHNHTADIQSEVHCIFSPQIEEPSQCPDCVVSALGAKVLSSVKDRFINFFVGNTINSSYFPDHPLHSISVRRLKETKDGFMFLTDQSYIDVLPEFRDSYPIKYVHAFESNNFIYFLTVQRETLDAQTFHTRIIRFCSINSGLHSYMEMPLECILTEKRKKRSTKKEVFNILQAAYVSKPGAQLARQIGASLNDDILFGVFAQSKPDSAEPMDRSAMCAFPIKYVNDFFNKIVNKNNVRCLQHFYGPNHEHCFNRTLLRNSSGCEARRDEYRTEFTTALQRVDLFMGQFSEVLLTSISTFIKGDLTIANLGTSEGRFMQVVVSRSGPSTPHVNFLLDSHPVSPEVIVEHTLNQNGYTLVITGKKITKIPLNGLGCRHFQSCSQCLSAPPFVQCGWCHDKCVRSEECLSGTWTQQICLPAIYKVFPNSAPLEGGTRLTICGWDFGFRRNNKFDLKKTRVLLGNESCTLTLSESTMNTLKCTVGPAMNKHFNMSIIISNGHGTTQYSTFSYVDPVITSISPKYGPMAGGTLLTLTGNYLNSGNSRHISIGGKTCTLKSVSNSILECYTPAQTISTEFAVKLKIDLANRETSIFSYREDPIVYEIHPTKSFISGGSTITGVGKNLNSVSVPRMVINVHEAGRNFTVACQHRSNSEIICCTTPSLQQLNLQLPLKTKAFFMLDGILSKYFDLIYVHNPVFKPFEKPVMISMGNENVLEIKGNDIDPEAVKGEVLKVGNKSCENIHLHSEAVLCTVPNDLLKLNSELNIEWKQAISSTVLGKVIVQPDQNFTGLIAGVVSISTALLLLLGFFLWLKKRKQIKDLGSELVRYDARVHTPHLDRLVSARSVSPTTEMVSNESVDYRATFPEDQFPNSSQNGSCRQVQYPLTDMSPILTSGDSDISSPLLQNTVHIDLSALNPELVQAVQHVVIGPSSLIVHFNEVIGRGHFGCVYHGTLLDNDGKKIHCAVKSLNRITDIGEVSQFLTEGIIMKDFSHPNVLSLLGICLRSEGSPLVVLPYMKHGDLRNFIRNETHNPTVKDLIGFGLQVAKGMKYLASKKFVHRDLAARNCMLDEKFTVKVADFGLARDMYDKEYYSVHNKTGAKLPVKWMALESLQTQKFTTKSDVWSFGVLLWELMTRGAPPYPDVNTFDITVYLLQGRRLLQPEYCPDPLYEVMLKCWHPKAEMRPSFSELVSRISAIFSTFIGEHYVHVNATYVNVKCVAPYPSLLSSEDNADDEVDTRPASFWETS
- test-details: Kinase inhibition assay (33P transfer), c-Met
- Format: biochemical
- assay-conditions: Table 2, kinase inhibition class; read-out: Met-1
pIC50: −log10 of the molar value.

Solved entries (count: 6):
In [3]: df
Out[3]:
                                   molecule  readout_type  recorded_result
0  CCOC(=O)CNc1ncnc(N2CCCc3cc(C)ccc32)n1 [Compound 761]         pIC50           < 4.86
1  COc1cc(Nc2ncnc(-c3cccnc3NCc3ccccn3)n2)cc(OC)c1OC [Compound 1080]         pIC50           < 5.00
2  COc1cc(Nc2ncnc(Nc3n[nH]c(Nc4ccc(Cl)cc4)n3)n2)cc(OC)c1OC [Compound 1003]         pIC50     5.29 to 6.07
3  NC(=O)Cc1ccc(Nc2ncnc(Nc3cc(-c4ccccc4)n[nH]3)n2)cc1 [Compound 573]         pIC50     5.21 to 5.98
4  COc1cc(Nc2ncnc(Nc3cc(F)ccc3F)n2)cc(OC)c1OC [Compound 316]         pIC50           < 4.94
5  NC(=O)c1cccc(Nc2ncnc(-n3c(=O)[nH]c4ccccc43)n2)c1 [Compound 420]         pIC50           < 4.89

// switching to the query molecule
Per the records, this molecule ( Oc1ccc(Nc2ncnc(-c3ccccc3)n2)cc1 [Compound 11] ) has pIC50 equal to < 4.77

###

- target-of-assay: Lck (Homo sapiens)
- Construct: Kinases are expressed as either kinase domains or full length constructs; made in house
- Sequence (P06239 whole entry, species assumed, the tested form may be a part): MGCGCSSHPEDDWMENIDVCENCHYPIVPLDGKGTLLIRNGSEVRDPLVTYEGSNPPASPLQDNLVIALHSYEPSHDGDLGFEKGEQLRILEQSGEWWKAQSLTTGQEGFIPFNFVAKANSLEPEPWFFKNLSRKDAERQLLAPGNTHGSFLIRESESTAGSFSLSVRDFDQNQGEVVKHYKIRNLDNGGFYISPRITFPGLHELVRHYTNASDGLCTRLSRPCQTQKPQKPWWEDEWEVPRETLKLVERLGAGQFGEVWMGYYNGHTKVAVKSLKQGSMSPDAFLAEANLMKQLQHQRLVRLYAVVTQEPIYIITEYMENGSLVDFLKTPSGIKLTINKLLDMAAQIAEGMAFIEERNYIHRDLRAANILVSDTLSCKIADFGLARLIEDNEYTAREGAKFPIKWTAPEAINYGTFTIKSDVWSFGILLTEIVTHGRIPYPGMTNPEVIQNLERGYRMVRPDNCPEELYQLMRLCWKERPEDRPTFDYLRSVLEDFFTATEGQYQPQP
- test-details: Kinase inhibition assay (33P transfer), Lck
- Type: biochemical
- assay-conditions: Table 3; read-out: Lck-1
IC50 by entry:

Solved entries (count: 8):
                                   compound     target_of_assay   recorded_result
0  COc1cc(Nc2ncnc(-n3cnc4ccccc43)n2)cc(OC)c1OC [Compound 186]  Lck (Homo sapiens)   1.06 to 6.34 µM
1  COc1cc(Nc2ncnc(-c3c(O)n(C)c4ccccc34)n2)cc(OC)c1OC [Compound 465]  Lck (Homo sapiens)           > 11 µM
2  COc1ccc(Nc2nc3ccccc3n2-c2ncnc(Nc3cc(OC)c(OC)c(OC)c3)n2)cc1OC [Compound 400]  Lck (Homo sapiens)          > 8.5 µM
3  COc1cc(Nc2ncnc(-n3c(Nc4ccccc4)nc4ccccc43)n2)cc(OC)c1OC [Compound 336]  Lck (Homo sapiens)  0.852 to 5.11 µM
4  COc1cc(Nc2ncnc(-c3ccc(N(C)C)nc3)n2)cc(OC)c1OC [Compound 449]  Lck (Homo sapiens)         > 11.8 µM
5  CCN(CC)CCCNc1ccc(-c2ncnc(Nc3cc(OC)c(OC)c(OC)c3)n2)cn1 [Compound 448]  Lck (Homo sapiens)  0.855 to 5.13 µM
6  COc1cc(Nc2nc3ccccc3n2-c2ncnc(Nc3cc(OC)c(OC)c(OC)c3)n2)cc(OC)c1 [Compound 399]  Lck (Homo sapiens)    6.61 to 8.5 µM
7  Nc1ncnc(Nc2cccc(C(F)(F)F)c2)n1 [Compound 1015]  Lck (Homo sapiens)         > 17.6 µM

Per the records, this compound ( COc1cc(Nc2ncnc(-n3c(NCc4ccccc4)nc4ccccc43)n2)cc(OC)c1OC [Compound 371] ) has IC50 equal to 0.827 to 4.96 µM

###

IC50 by entry:
- target-of-assay: c-Met (Homo sapiens)
- Construct: Kinases are expressed as either kinase domains or full length constructs; made in house
- test-details: Kinase inhibition assay (33P transfer), c-Met
- Format: biochemical
- assay-conditions: Table 2, kinase inhibition class; read-out: Met-1

Solved entries (count: 2):
In [3]: df
Out[3]:
                                   compound  readout_type  recorded_result
0  O=c1[nH]c2ccccc2n1-c1ncnc(Nc2ccc(Cl)cc2Cl)n1 [Compound 504]          IC50        > 12.1 µM
1  COc1ccc(Nc2ncnc(Nc3ccc(C)c(O)c3)n2)cc1OC [Compound 119]          IC50        > 12.7 µM

// switching to the query compound
Per the records, this compound ( COc1cc(Nc2ncnc(Nc3ccc4nn(C)cc4c3)n2)cc(OC)c1OC [Compound 556] ) has IC50 equal to > 11 µM

###

IC50 by entry:
- target-of-assay: Zap-70 (Homo sapiens, UniProt P43403)
- Construct: Kinases are expressed as either kinase domains or full length constructs; made in house
- Sequence (P43403 whole entry, species assumed, the tested form may be a part): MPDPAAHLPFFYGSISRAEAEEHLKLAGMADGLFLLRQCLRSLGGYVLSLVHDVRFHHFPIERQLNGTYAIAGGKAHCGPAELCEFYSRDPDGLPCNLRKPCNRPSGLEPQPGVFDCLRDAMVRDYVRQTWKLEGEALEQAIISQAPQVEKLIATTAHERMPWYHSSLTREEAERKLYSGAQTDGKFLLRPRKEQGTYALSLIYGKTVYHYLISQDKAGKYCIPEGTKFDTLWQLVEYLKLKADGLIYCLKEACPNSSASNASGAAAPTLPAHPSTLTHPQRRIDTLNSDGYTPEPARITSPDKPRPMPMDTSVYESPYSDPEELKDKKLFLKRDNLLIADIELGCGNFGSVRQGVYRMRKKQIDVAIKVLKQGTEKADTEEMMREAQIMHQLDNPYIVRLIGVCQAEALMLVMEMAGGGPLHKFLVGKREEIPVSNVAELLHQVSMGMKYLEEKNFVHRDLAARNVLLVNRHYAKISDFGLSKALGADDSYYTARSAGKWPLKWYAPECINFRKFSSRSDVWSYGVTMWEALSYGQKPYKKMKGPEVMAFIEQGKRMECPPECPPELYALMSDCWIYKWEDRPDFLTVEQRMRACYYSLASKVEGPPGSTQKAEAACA
- test-details: Kinase inhibition assay (33P transfer), Zap-70
- Format: biochemical
- assay-conditions: read-out: Zap-1

Solved entries (count: 5):
>>> df
                                   molecule  recorded_result
0  CN(c1cccc(Cl)c1)c1ncnc(Nc2ccc(Cl)c(Cl)c2)n1 [Compound 708]   6.3 to 9.19 µM
1  COc1cc(Br)ccc1Nc1nc2ccccc2n1-c1ncnc(Nc2cc(OC)c(OC)c(OC)c2)n1 [Compound 1052]        > 7.78 µM
2  CN(c1cccc(Cl)c1)c1ncnc(N(C)c2cccc(Cl)c2)n1 [Compound 702]        > 12.5 µM
3  CC(C)(C)c1cc(Nc2ncnc(Nc3ccc(CC(=O)O)cc3)n2)[nH]n1 [Compound 980]        > 12.2 µM
4  COc1cc(Nc2ncnc(-c3cccnc3NCc3ccccc3F)n2)cc(OC)c1OC [Compound 1087]        > 9.73 µM

Per the records, this molecule ( COc1cc(Nc2ncnc(Nc3cc(-c4ccc(C(=O)O)cc4)n[nH]3)n2)cc(OC)c1OC [Compound 1004] ) has IC50 equal to > 9.71 µM

Per the records, this molecule ( COc1cc(Nc2ncnc(NN3CCCC3)n2)cc(OC)c1OC [Compound 1002] ) has IC50 equal to > 13 µM

Per the records, this molecule ( N#Cc1cccc(Nc2ncnc(-n3c(=O)[nH]c4ccccc43)n2)c1 [Compound 486] ) has IC50 equal to > 13.7 µM

Per the records, this molecule ( COc1ccc(Nc2ncnc(N3CCCc4ccc(C)cc43)n2)cc1OC [Compound 567] ) has IC50 equal to > 11.9 µM

Per the records, this molecule ( COc1cc(Nc2ncnc(-n3c(NCCc4ccccc4)nc4ccccc43)n2)cc(OC)c1OC [Compound 509] ) has IC50 equal to > 9.04 µM

Per the records, this molecule ( COc1cc(Nc2ncnc(Nc3ccc4nn(Cc5ccccc5)cc4c3)n2)cc(OC)c1OC [Compound 555] ) has IC50 equal to 7.24 to 9.31 µM

Per the records, this molecule ( CCN(CC)CCOc1ccc(Nc2ncnc(Nc3cc(OC)c(OC)c(OC)c3)n2)cc1OC [Compound 602] ) has IC50 equal to > 9.03 µM

Per the records, this molecule ( COc1cc(Nc2ncnc(-n3c(NCc4ccc(F)cc4Cl)nc4ccccc43)n2)cc(OC)c1OC [Compound 951] ) has IC50 equal to > 8.4 µM

###

- target-of-assay: c-Met (Homo sapiens, UniProt P08581)
- Construct: Kinases are expressed as either kinase domains or full length constructs; made in house
- test-details: Kinase inhibition assay (33P transfer), c-Met
- Type: biochemical
- assay-conditions: Table 2, kinase inhibition class; read-out: Met-1
readout-type: IC50

Solved entries (count: 2):
>>> df
                                   molecule                       target_of_assay  recorded_result
0  COc1ccc(Nc2ncccc2-c2ncnc(Nc3cc(OC)c(OC)c(OC)c3)n2)c(C)c1 [Compound 1086]  c-Met (Homo sapiens, UniProt P08581)        > 9.48 µM
1  O=c1[nH]c2ccccc2n1-c1ncnc(Nc2cccc3cccnc23)n1 [Compound 688]  c-Met (Homo sapiens, UniProt P08581)        > 12.7 µM

Per the records, this molecule ( COc1cc(Nc2ncnc(Nc3ccc(C)c(NS(C)(=O)=O)c3)n2)cc(OC)c1OC [Compound 305] ) has IC50 equal to 7.6 to 9.77 µM
